Source: PubChem BioAssay AID1963830

Test system: 922993-354-T-J3-PDC complex spheroid viability
Experiment notes: Anticancer human tumor 922993-354-T-J3-PDC patient-derived endometrial carcinoma cell line growth inhibition [POLQ]
Condition label: second compound 0.316 µM; first compound 0.000316 µM; stronger effect = lower value
Measured attribute: viability, T/C (%)
Entry rule: numbers only, all in %.

Compound	Assay target	Measured value
Cn1ncnc1[C@H]1c2n[nH]c(=O)c3cc(F)cc(c23)N[C@@H]1c1ccc(F)cc1 + COC1C(OC(N)=O)C(O)C(Oc2ccc3c(O)c(NC(=O)c4ccc(O)c(CC=C(C)C)c4)c(=O)oc3c2C)OC1(C)C	922993-354-T-J3-PDC complex spheroid viability	108

Which value of viability, T/C has been reported for CC[C@@]1(O)C(=O)OCc2c1cc1n(c2=O)Cc2cc3c(CN(C)C)c(O)ccc3nc2-1 + Cc1cccc(N(C)C(=O)C2C(O)CCN2c2nc(C)cc(C(F)(F)F)c2C#N)c1 in the records?
110

Which value of viability, T/C has been reported for Cn1ncnc1[C@H]1c2n[nH]c(=O)c3cc(F)cc(c23)N[C@@H]1c1ccc(F)cc1 + Nc1ccc(C#CCN(C(=O)Cc2ncc(C(F)(F)F)cc2C(F)(F)F)c2ccc(F)cc2)nn1 in the records?
104

Which value of viability, T/C has been reported for CC[C@@]1(O)C(=O)OCc2c1cc1n(c2=O)Cc2cc3c(CN(C)C)c(O)ccc3nc2-1 + COC1C(OC(N)=O)C(O)C(Oc2ccc3c(O)c(NC(=O)c4ccc(O)c(CC=C(C)C)c4)c(=O)oc3c2C)OC1(C)C in the records?
100

Which value of viability, T/C has been reported for Cn1ncnc1[C@H]1c2n[nH]c(=O)c3cc(F)cc(c23)N[C@@H]1c1ccc(F)cc1 + Cc1cccc(N(C)C(=O)C2C(O)CCN2c2nc(C)cc(C(F)(F)F)c2C#N)c1 in the records?
107

Which value of viability, T/C has been reported for CC[C@@]1(O)C(=O)OCc2c1cc1n(c2=O)Cc2cc3c(CN(C)C)c(O)ccc3nc2-1 + Nc1ccc(C#CCN(C(=O)Cc2ncc(C(F)(F)F)cc2C(F)(F)F)c2ccc(F)cc2)nn1 in the records?
105

---

Entries and their measured pIC50 follow.
Test system: 922993-354-T-J3-PDC complex spheroid viability
Experiment notes: Anticancer human tumor 922993-354-T-J3-PDC cell line growth inhibition [POLQ];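 also: spheroids exposed to the agents for one week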
Condition label: curve of first compound; second compound 3.16 µM
Please treat pIC50 as minus the base-10 logarithm of the molar concentration.

Compound	pIC50
COc1cccc2c1C(=O)c1c(O)c3c(c(O)c1C2=O)CC(O)(C(=O)CO)CC3OC1CC(N)C(O)C(C)O1 (stereo not given) + Cc1cccc(N(C)C(=O)C2C(O)CCN2c2nc(C)cc(C(F)(F)F)c2C#N)c1	6.26

The record that follows has no pIC50 shown yet.
Which value of pIC50 has been reported for CC[C@@]1(O)C(=O)OCc2c1cc1n(c2=O)Cc2cc3c(CN(C)C)c(O)ccc3nc2-1 + COC1C(OC(N)=O)C(O)C(Oc2ccc3c(O)c(NC(=O)c4ccc(O)c(CC=C(C)C)c4)c(=O)oc3c2C)OC1(C)C in the records?
7.15

---

Entries and their measured pIC50 follow.
System: 922993-354-T-J3-PDC complex spheroid viability
Experiment notes: Anticancer human tumor 922993-354-T-J3-PDC cell line growth inhibition [POLQ];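 also: spheroids exposed to the agents for one week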
Condition label: curve of first compound; second compound 3.16 µM
Protocol: Multicellular complex tumor spheroid response to Polymerase (POL) inhibitors (novobiocin, ART-558, RP6685) in combination with a variety of drugs and investigational agents in selected tumor cell lines The POL inhibitors (novobiocin, ART-558, and RP6685) were evaluated both individually and in combination with standard of care and investigational anticancer small molecules within a complex spheroid model of solid tumors. . […]
pIC50: −log10 of the molar value.

Molecule	pIC50
CNCc1ccc(-c2[nH]c3cc(F)cc4c3c2CCNC4=O)cc1 + Cc1cccc(N(C)C(=O)C2C(O)CCN2c2nc(C)cc(C(F)(F)F)c2C#N)c1	< 5.00
O=C(c1cc(Cc2n[nH]c(=O)c3ccccc23)ccc1F)N1CCN(C(=O)C2CC2)CC1 + COC1C(OC(N)=O)C(O)C(Oc2ccc3c(O)c(NC(=O)c4ccc(O)c(CC=C(C)C)c4)c(=O)oc3c2C)OC1(C)C	< 5.00
CCc1cc2c(N3CCc4c(cc(Cn5ccnc5)cc4-c4cn(C)nc4C(F)(F)F)C3=O)cc(C)nc2c(OC)n1 + COC1C(OC(N)=O)C(O)C(Oc2ccc3c(O)c(NC(=O)c4ccc(O)c(CC=C(C)C)c4)c(=O)oc3c2C)OC1(C)C	< 5.00
COc1cc(C2c3cc4c(cc3C(OC3OC5COC(C)OC5C(O)C3O)C3COC(=O)C23)OCO4)cc(OC)c1O (stereo not given) + Nc1ccc(C#CCN(C(=O)Cc2ncc(C(F)(F)F)cc2C(F)(F)F)c2ccc(F)cc2)nn1	< 5.00
CC1COCCN1c1cc(C2(O)CC3CCC(C2)O3)c2cnn(-c3ccn[nH]3)c2n1 (stereo not given) + Nc1ccc(C#CCN(C(=O)Cc2ncc(C(F)(F)F)cc2C(F)(F)F)c2ccc(F)cc2)nn1	5.88

Which value of pIC50 has been reported for C=CCn1c(=O)c2cnc(Nc3ccc(N4CCN(C)CC4)cc3)nc2n1-c1cccc(C(C)(C)O)n1 + Nc1ccc(C#CCN(C(=O)Cc2ncc(C(F)(F)F)cc2C(F)(F)F)c2ccc(F)cc2)nn1 in the records?
< 6.00

Which value of pIC50 has been reported for COc1cccc(OCCCN)c1-c1cc(Nc2cnc(C#N)cn2)n[nH]1 + COC1C(OC(N)=O)C(O)C(Oc2ccc3c(O)c(NC(=O)c4ccc(O)c(CC=C(C)C)c4)c(=O)oc3c2C)OC1(C)C in the records?
6.80

Which value of pIC50 has been reported for CCCS(=O)(=O)Nc1ccc(F)c(C(=O)c2c[nH]c3ncc(-c4ccc(Cl)cc4)cc23)c1F + Cc1cccc(N(C)C(=O)C2C(O)CCN2c2nc(C)cc(C(F)(F)F)c2C#N)c1 in the records?
< 5.00

Which value of pIC50 has been reported for CC1COCCN1c1cc(C2(S(C)(=N)=O)CC2)nc(-c2ccnc3[nH]ccc23)n1 (stereo not given) + Nc1ccc(C#CCN(C(=O)Cc2ncc(C(F)(F)F)cc2C(F)(F)F)c2ccc(F)cc2)nn1 in the records?
< 5.00

Which value of pIC50 has been reported for CC(=O)O[C@H]1C(=O)[C@@]2(C)[C@H]([C@H](OC(=O)c3ccccc3)[C@]3(O)C[C@H](OC(=O)[C@H](O)[C@@H](NC(=O)c4ccccc4)c4ccccc4)C(C)=C1C3(C)C)[C@]1(OC(C)=O)CO[C@@H]1C[C@@H]2O + COC1C(OC(N)=O)C(O)C(Oc2ccc3c(O)c(NC(=O)c4ccc(O)c(CC=C(C)C)c4)c(=O)oc3c2C)OC1(C)C in the records?
< 5.52

---

Tested on: 922993-354-T-J3-PDC complex spheroid viability
Experiment notes: Anticancer human tumor 922993-354-T-J3-PDC cell line growth inhibition [POLQ];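 also: spheroids exposed to the agents for one week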;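 as to viability, T/C: 100% = DMSO vehicle control wells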
Condition label: second compound 0.1 µM; first compound 0.1 µM; stronger effect = lower value
Measured attribute: viability, T/C

Solved entries (count: 2):
Compound	Measured attribute	Measured value
CC1COCCN1c1cc(C2(S(C)(=N)=O)CC2)nc(-c2ccnc3[nH]ccc23)n1 (stereo not drawn) + Nc1ccc(C#CCN(C(=O)Cc2ncc(C(F)(F)F)cc2C(F)(F)F)c2ccc(F)cc2)nn1	viability, T/C	105%
C=CC(=O)N1CCN(c2nc(=O)n(-c3c(C)ccnc3C(C)C)c3nc(-c4c(O)cccc4F)c(F)cc23)C(C)C1 (stereo not drawn) + COC1C(OC(N)=O)C(O)C(Oc2ccc3c(O)c(NC(=O)c4ccc(O)c(CC=C(C)C)c4)c(=O)oc3c2C)OC1(C)C	viability, T/C	107%

Which value of viability, T/C has been reported for Cn1ncnc1[C@H]1c2n[nH]c(=O)c3cc(F)cc(c23)N[C@@H]1c1ccc(F)cc1 + Nc1ccc(C#CCN(C(=O)Cc2ncc(C(F)(F)F)cc2C(F)(F)F)c2ccc(F)cc2)nn1 in the records?
86.5%

---

Entries and their measured viability, T/C follow.
Test system: 922993-354-T-J3-PDC complex spheroid viability
Experiment notes: Anticancer human tumor 922993-354-T-J3-PDC cell line growth inhibition [POLQ];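 also: spheroids exposed to the agents for one week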;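 as to viability, T/C: 100% = DMSO vehicle control wells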
Condition label: second compound 10 µM; first compound 0.316 µM; stronger effect = lower value

Solved entries (count: 6):
Molecule	viability, T/C
CCc1cc2c(N3CCc4c(cc(Cn5ccnc5)cc4-c4cn(C)nc4C(F)(F)F)C3=O)ccnc2c(OC)n1 + Nc1ccc(C#CCN(C(=O)Cc2ncc(C(F)(F)F)cc2C(F)(F)F)c2ccc(F)cc2)nn1	99.4%
CCCS(=O)(=O)Nc1ccc(F)c(C(=O)c2c[nH]c3ncc(-c4ccc(Cl)cc4)cc23)c1F + COC1C(OC(N)=O)C(O)C(Oc2ccc3c(O)c(NC(=O)c4ccc(O)c(CC=C(C)C)c4)c(=O)oc3c2C)OC1(C)C	79.8%
CC1COCCN1c1cc(C2(S(C)(=N)=O)CC2)nc(-c2ccnc3[nH]ccc23)n1 (configuration not stated) + Nc1ccc(C#CCN(C(=O)Cc2ncc(C(F)(F)F)cc2C(F)(F)F)c2ccc(F)cc2)nn1	98.7%
C=CCn1c(=O)c2cnc(Nc3ccc(N4CCN(C)CC4)cc3)nc2n1-c1cccc(C(C)(C)O)n1 + COC1C(OC(N)=O)C(O)C(Oc2ccc3c(O)c(NC(=O)c4ccc(O)c(CC=C(C)C)c4)c(=O)oc3c2C)OC1(C)C	106%
CCc1cc2c(N3CCc4c(cc(Cn5ccnc5)cc4-c4cn(C)nc4C(F)(F)F)C3=O)cc(C)nc2c(OC)n1 + COC1C(OC(N)=O)C(O)C(Oc2ccc3c(O)c(NC(=O)c4ccc(O)c(CC=C(C)C)c4)c(=O)oc3c2C)OC1(C)C	87.5%
CC(C)n1c(=O)n(C)c2cnc3cc(F)c(-c4ccc(OCCCN5CCCCC5)nc4)cc3c21 + Nc1ccc(C#CCN(C(=O)Cc2ncc(C(F)(F)F)cc2C(F)(F)F)c2ccc(F)cc2)nn1	94.9%

The record that follows has no viability, T/C shown yet.
Observed viability, T/C on 922993-354-T-J3-PDC complex spheroid viability for CCCS(=O)(=O)Nc1ccc(F)c(C(=O)c2c[nH]c3ncc(-c4ccc(Cl)cc4)cc23)c1F + Cc1cccc(N(C)C(=O)C2C(O)CCN2c2nc(C)cc(C(F)(F)F)c2C#N)c1 , please.
104%
